Numbers sourced from ChEMBL document CHEMBL5724796.

# ASSAY TARGET: Peregrin (Homo sapiens) (UniProt P55201)
# Sequence (P55201 whole entry): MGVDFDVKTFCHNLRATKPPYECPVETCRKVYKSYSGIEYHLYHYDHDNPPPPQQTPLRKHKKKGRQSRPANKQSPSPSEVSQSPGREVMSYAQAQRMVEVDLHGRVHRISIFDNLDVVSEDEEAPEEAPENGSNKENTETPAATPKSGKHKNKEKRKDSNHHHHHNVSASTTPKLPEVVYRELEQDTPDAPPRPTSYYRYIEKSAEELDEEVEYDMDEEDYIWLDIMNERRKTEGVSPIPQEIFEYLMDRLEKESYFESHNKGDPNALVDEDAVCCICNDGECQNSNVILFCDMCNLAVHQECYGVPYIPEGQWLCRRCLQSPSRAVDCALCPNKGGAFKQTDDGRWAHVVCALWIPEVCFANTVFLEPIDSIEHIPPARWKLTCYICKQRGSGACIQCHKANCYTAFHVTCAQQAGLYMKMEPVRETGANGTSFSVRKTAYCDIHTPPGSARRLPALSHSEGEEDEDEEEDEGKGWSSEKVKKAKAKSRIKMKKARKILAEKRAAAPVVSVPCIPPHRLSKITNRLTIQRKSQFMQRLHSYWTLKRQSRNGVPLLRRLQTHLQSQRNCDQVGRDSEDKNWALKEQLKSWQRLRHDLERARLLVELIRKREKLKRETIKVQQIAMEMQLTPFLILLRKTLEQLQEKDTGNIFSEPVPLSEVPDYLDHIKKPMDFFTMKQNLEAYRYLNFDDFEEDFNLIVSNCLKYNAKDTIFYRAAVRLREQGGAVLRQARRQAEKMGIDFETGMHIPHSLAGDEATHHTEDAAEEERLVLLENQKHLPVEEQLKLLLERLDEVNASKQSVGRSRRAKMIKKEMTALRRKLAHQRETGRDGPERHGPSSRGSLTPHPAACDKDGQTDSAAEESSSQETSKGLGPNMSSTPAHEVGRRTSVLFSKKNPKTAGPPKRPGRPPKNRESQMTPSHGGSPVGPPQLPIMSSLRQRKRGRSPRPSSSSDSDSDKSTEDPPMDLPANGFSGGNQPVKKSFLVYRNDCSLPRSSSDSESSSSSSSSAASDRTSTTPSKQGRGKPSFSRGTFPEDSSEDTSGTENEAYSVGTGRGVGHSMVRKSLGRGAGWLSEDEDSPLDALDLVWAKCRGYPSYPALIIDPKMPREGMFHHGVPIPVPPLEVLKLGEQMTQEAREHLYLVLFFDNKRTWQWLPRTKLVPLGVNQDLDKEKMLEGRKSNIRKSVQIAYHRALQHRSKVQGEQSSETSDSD
# RUN PARAMETERS: Compound concentration 20.0 uM
READOUT: ΔTm (°C)
Entry rule: numbers only, all in °C.

(Q) Could you tell me which ΔTm is on file for COc1ccc(-c2ccc(-c3cn(C(=O)N4CCCCC4c4ccccc4)nn3)cc2)cc1 (stereo not given) ?
(A) -1.62

(Q) # iterate: CC(=O)N[C@@H](CC(=O)O)C(=O)N[C@@H](CCC(=O)O)C(=O)N[C@H](C(=O)N[C@@H](CC(=O)O)C(=O)CCl)C(C)C
(A) -1.75

(Q) # iterate: NS(=O)(=O)OC[C@H]1C[C@@H](Nc2ccnc3cc(-c4cccc(SC(F)(F)F)c4)nn23)[C@H](O)[C@@H]1O
(A) 3.28

(Q) # iterate: Cc1sc(C(=O)c2cncnc2N[C@@H]2C[C@H](COS(N)(=O)=O)[C@@H](O)C2)cc1[C@@H]1NCCc2ccc(Cl)cc21
(A) -1.17

(Q) # iterate: OC1CN=C2c3ccn([C@@H]4O[C@H]([C@H](O)c5ccc(Cl)cc5)[C@@H](O)[C@H]4O)c3N=CN21 (stereo not given in full)
(A) -0.74

(Q) # iterate: COc1ccc(C(=O)C2CCN(CC(=O)N(Cc3nc4c(c(=O)[nH]3)COCC4)CC3CC3)CC2)cc1
(A) 2.73

(Q) # iterate: Cc1ncsc1-c1ccc(CNC(=O)[C@@H]2C[C@@H](O)CN2C(=O)[C@@H](NC(=O)COCC(C)(COCCOCCOCCNC(=O)C[C@@H]2N=C(c3ccc(Cl)cc3)c3c(sc(C)c3C)-n3c(C)nnc32)COCCOCCOCCNC(=O)C[C@@H]2N=C(c3ccc(Cl)cc3)c3c(sc(C)c3C)-n3c(C)nnc32)C(C)(C)C)cc1
(A) -5.29

(Q) # iterate: CC(=O)N[C@@H](Cc1ccc(O)cc1)C(=O)N[C@H](C(=O)N[C@@H](C)C(=O)N[C@@H](CC(=O)O)C(=O)CCl)C(C)C
(A) -1.75

(Q) # iterate: O=[N+]([O-])c1cc(O)c(O)c([N+](=O)[O-])c1
(A) 2.24

(Q) # iterate: CN1Cc2c(Cl)cc(Cl)cc2[C@H](c2cccc(S(=O)(=O)NCCOCCOCCNC(=O)NCCCCNC(=O)NCCOCCOCCNS(=O)(=O)c3cccc([C@@H]4CN(C)Cc5c(Cl)cc(Cl)cc54)c3)c2)C1
(A) 0.43

(Q) # iterate: O=C(Nc1c[nH]nc1C(=O)NC1CCNCC1)c1cc(F)cc(F)c1
(A) -3.15

(Q) # iterate: Nc1ccccc1NC(=O)CCCCCC(=O)Nc1ccccc1
(A) -1.41

(Q) # iterate: CS(=O)(=O)c1ccc(-c2cnc(NCc3ccco3)n3cnnc23)cc1
(A) -1.15

(Q) # iterate: CN(C)CCCNC(=O)c1ccc(-c2cc(O)c3ncccc3c2)cc1
(A) -1.48

(Q) # iterate: CC(C)N(C(=O)c1cc(F)ccc1Oc1cncnc1N1CC2(CCN(C[C@H]3CC[C@H](NS(C)(=O)=O)CC3)CC2)C1)C(C)C
(A) 0.63
